Recorded values, source ChEMBL document CHEMBL2010753.

Test system: U-251
Experiment: Growth inhibition of human U251 cells after 48 hrs by sulforhodamine B assay
Type: functional
Conditions: U-251, 48 h
measured quantity: GI50 (µg/mL)

Answered examples (5):
input: Provide value of GI50 for this record tested with U-251: CCOC(=O)C1=C(C)NC(=O)NC1C1CCCCC1 (centres undefined)
output: 142

input: Next compound up: CCOC(=O)C1=C(C)NC(=S)NC1c1ccccc1 (centres undefined)
output: 26.6

input: What do we get for CCOC(=O)C1=C(C)NC(=S)NC1c1ccc(O)c(OC)c1 (centres undefined) ?
output: 88.3

input: And for CCOC(=O)C1=C(C)NC(=O)NC1c1cccc(O)c1 (centres undefined) ?
output: 5.1

input: Please give the result for CCOC(=O)C1=C(C)NC(=O)NC1c1ccc(O)c(O)c1 (centres undefined) too.
output: 0.25

(I) CCOC(=O)C1=C(C)NC(=S)NC1c1ccc(O)c(O)c1 (centres undefined)
(II) CCOC(=O)C1=C(C)NC(=S)NC1c1ccc(O)cc1 (centres undefined)
(III) CCOC(=O)C1=C(C)NC(=O)NC1c1ccc(OC)cc1 (centres undefined)
(IV) CCOC(=O)C1=C(C)NC(=O)NC1c1ccc(SC)cc1 (centres undefined)
(V) CCOC(=O)C1=C(C)NC(=S)NC1c1cc(OC)c(O)c(OC)c1 (centres undefined)
input: List from greatest to least GI50. Give your ranking as a list of the labels in the requested order.
output: II, I, III, IV, V

* * *

System: HT-29
Test: Growth inhibition of human HT-29 cells after 48 hrs by sulforhodamine B assay
Format: functional
Settings: HT-29, 48 h
measured quantity: GI50 (µg/mL)

input: GI50 for CCOC(=O)C1=C(C)NC(=S)NC1c1ccc(F)cc1 (centres undefined) ?
output: 26.5

input: Again, but for CCOC(=O)C1=C(C)NC(=O)NC1c1ccc(SC)cc1 (centres undefined)
output: 10.2

input: Same again, this time with CCCC1NC(=S)NC(C)=C1C(=O)OCC (centres undefined)
output: 50.4

input: Field entry: CCOC(=O)C1=C(C)NC(=S)NC1c1ccc(OC)cc1 (centres undefined)
output: 30.6

(1) CCOC(=O)C1=C(C)NC(=S)NC1c1cc(OC)c(O)c(OC)c1 (centres undefined)
(2) COc1cccc2c1C(=O)c1c(O)c3c(c(O)c1C2=O)C[C@@](O)(C(=O)CO)C[C@@H]3O[C@H]1C[C@H](N)[C@H](O)[C@H](C)O1
input: Please compare: 1 and 2 . Report which one has the smaller GI50 value. Reply briefly: the label of your chosen item.
output: 2

* * *

Test system: PC-3
Experiment: Growth inhibition of human PC3 cells after 48 hrs by sulforhodamine B assay
Format: functional
Conditions: PC-3, 48 h
measured quantity: GI50 (µg/mL)

input: Quick one: GI50 for CCOC(=O)C1=C(C)NC(=O)NC1c1cccc(O)c1 (stereo unspecified) ?
output: 34.7

(1) CCOC(=O)C1=C(C)NC(=S)NC1c1ccc(O)c(O)c1 (stereo unspecified)
(2) COc1cccc2c1C(=O)c1c(O)c3c(c(O)c1C2=O)C[C@@](O)(C(=O)CO)C[C@@H]3O[C@H]1C[C@H](N)[C@H](O)[C@H](C)O1
(3) CCOC(=O)C1=C(C)NC(=S)NC1C1CCCCC1 (stereo unspecified)
input: Order the entries by their reported GI50, beginning at the minimum. Present the labels in the sequence the task asks for.
output: 2, 3, 1
(2: 0.24 µg/mL, 3: 0.46 µg/mL, 1: 25 µg/mL)
